Field: Kd. System: the protein given by its sequence. Provenance: assorted publications.
Protein target, amino acids: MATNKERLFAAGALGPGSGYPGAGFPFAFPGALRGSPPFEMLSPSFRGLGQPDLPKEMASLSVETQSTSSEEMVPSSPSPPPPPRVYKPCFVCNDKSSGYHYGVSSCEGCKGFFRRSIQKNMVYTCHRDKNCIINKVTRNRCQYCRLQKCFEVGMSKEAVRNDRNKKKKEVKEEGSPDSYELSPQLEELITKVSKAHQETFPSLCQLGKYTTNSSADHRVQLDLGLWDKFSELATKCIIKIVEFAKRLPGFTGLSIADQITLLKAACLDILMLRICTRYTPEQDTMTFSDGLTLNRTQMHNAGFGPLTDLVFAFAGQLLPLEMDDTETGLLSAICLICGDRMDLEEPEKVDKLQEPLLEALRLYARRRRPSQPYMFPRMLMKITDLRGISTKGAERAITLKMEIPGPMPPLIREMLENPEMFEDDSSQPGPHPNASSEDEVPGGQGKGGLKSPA
Kindly answer with a numeric value in nM, unit omitted.

smiles_repr=CC(C)N1CCC(C)(C)c2cc(C#Cc3ccc(C(=O)O)cc3)ccc21 measurement=72

In: Please supply the value of reported Kd for the item `CC1(C)CCNc2cc(C#Cc3ccc(C(=O)O)cc3)ccc21`
Out: 233

In: Tell us which Kd value is on record for `Cc1ccc(C2=CC(C)(C)Sc3cc4ccc(-c5ccc(C(=O)O)cc5)cc4cc32)cc1`
Out: 5

In: Complete the entry with Kd for `CC1(C)CC=C(c2ccc(C(F)(F)F)cc2)c2cc(C#Cc3ccc(C(=O)O)cc3)ccc21`
Out: 57

In: // fetch Kd given entry `CC1(C)CC=C(c2cccs2)c2cc(C#Cc3ccc(C(=O)O)cc3)ccc21`
Out: 104

In: Give the reported Kd for this molecule. `CC1(C)CCC(C)(C)c2cc(C(=O)Nc3cc(F)c(C(=O)O)c(F)c3)ccc21`
Out: 5600

In: Output Kd of `CC1(C)CC=C(c2cccs2)c2cc(C(=O)Oc3ccc(C(=O)O)cc3)ccc21`
Out: 1490

* * *

Several reports have described pKd for Retinoic acid receptor gamma (Homo sapiens); a selection of those results is presented here.
The meaning of pKd here: minus log10 of the concentration in molar units.

smiles_repr=CC(C)N1CCC(C)(C)c2ccc(C#Cc3ccc(C(=O)O)cc3)cc21 quantity_name=pKd measurement=7.28
smiles_repr=CC1(C)CC=C(c2ccc(C#N)cc2)c2cc(C#Cc3ccc(C(=O)O)cc3)ccc21 quantity_name=pKd measurement=7.29
smiles_repr=Cc1ccc(C2=CCC(C)(C)c3ccc(C#Cc4ccc(C(=O)O)cc4)cc32)cc1 quantity_name=pKd measurement=8.15
smiles_repr=CC1(C)CCNc2ccc(C#Cc3ccc(C(=O)O)cc3)cc21 quantity_name=pKd measurement=5.62
smiles_repr=Cc1ccccc1C1=CCC(C)(C)c2ccc(C#Cc3ccc(C(=O)O)cc3)cc21 quantity_name=pKd measurement=7.46
smiles_repr=CC1(C)CC=C(c2ccccc2)c2cc(C#Cc3ccc(C(=O)O)cc3)ccc21 quantity_name=pKd measurement=7.38
smiles_repr=Cc1ccc(C2=CC(C)(C)Sc3cc4ccc(-c5ccc(C(=O)O)cc5)cc4cc32)s1 quantity_name=pKd measurement=7.74

In: Recall and state the measured pKd for `CC(C)c1ccc(C2=CCC(C)(C)c3ccc(C#Cc4ccc(C(=O)O)cc4)cc32)cc1` .
Out: 6.77
